# system: HLA-A*03:01 (Homo sapiens, UniProt P04439)
# method.notes: MHC binding assay (UV-ligand exchange, β2m ELISA)
# run.parameters: binding to HLA-A*03:01, UV-ligand exchange, β2m ELISA
value.kind: Peptide exchange (MHC class I binding score, peptide exchange yield)

Check out these entries, answers already filled in.
175 (VIGTTSSPK; listed as Homo sapiens) [compound 175] : +++ (>50 = +++)
261 (AVAQKLLSH; listed as Homo sapiens) [compound 261] : ++++ (>75% = ++++)
179 (KINPTASLK; listed as Homo sapiens) [compound 179] : +++ (>50 = +++)
119 (RMGFRTLSK; listed as Homo sapiens) [compound 119] : ++++ (>75% = ++++)
161 (MKTLPAMLGTGK; listed as Homo sapiens) [compound 161] : ++ (>20% = ++)

Pending substance:
[ask] Recorded Peptide exchange (MHC class I binding score, peptide exchange yield) of 95 (FLGLAFHPK; listed as Homo sapiens) [compound 95] , please.
[reply] ++ (>20% = ++)

From: patent US11872270B2
